- system.name: UniProt:P06239
- Sequence (P06239 whole entry): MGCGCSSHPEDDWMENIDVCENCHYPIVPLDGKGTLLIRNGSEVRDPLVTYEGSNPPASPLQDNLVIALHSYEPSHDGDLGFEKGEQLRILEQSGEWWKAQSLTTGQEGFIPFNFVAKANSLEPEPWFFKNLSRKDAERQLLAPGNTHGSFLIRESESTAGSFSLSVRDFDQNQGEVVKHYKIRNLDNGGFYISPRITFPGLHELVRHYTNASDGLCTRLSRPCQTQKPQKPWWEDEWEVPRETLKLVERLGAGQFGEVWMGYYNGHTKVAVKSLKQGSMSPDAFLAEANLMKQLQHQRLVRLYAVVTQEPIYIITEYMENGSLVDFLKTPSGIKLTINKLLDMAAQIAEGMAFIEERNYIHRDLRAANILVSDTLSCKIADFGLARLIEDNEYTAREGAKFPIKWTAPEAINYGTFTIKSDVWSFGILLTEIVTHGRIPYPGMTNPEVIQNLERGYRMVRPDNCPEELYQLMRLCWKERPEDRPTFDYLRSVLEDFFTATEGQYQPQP
pIC50: −log10 of the molar value.

compound.structure.string	system.name	pIC50
O=C(Nc1ccc(F)cc1F)c1cccnc1Nc1ccc(Oc2ccnc3[nH]ccc23)c(F)c1	UniProt:P06239	< 4.30

----------
- run.description: Inhibition of CDK2E
property.label: IC50

compound.structure.string	test.value
O=C(Nc1ccc(F)cc1F)c1cccnc1Nc1ccc(Oc2ccnc3[nH]ccc23)c(F)c1	> 50 µM
